# protocolSummary: Antiproliferative activity against tamoxifen-resistant human LCC2 cells assessed as reduction in cell viability measured after 72 hrs by Cell Counting Kit-8 assay
# Assay type: functional, cell-based
# assayContext: LCC2, 72 h
Rule for this label: yes (1) means IC50 is less than 8 µM; no (0) means IC50 is at least 8 µM.

Request: Dear reviewer, please state whether O=S(=O)(Oc1ccc(Br)cc1)C1CC2OC1C(c1ccc([Se]c3ccccc3)cc1)=C2c1ccc(O)cc1 (stereo not drawn) has IC50 strictly beneath 8 µM.
Result: no (0)

Request: is_below(IC50, 8 µM) for O=S(=O)(Oc1ccc(Br)cc1)C1CC2OC1C(c1ccc(O)cc1)=C2c1ccc([Se]c2ccccc2)cc1 (stereo not drawn) ?
Result: no (0)

Request: Field: below-cutoff. Rule: recorded IC50 strictly less than 8 µM. Subject: Cc1ccc(OS(=O)(=O)C2CC3OC2C(c2ccc([Se]c4ccccc4)cc2)=C3c2ccc(O)cc2)cc1 (stereo not drawn)
Result: yes (1)

Request: Dear colleague, could you confirm whether IC50 of Cc1cccc(OS(=O)(=O)C2CC3OC2C(c2ccc([Se]c4ccccc4)cc2)=C3c2ccc(O)cc2)c1 (stereo not drawn) falls below 8 µM? Thanks.
Result: no (0)

Request: Strictly below 8 µM in IC50? O=S(=O)(Oc1ccc([Se]c2ccccc2)cc1)C1CC2OC1C(c1ccc(O)cc1)=C2c1ccc(O)cc1 (stereo not drawn)
Result: no (0)

Request: Please check: IC50 for O=S(=O)(Oc1ccc(Cl)cc1)C1CC2OC1C(c1ccc(O)cc1)=C2c1ccc([Se]c2ccccc2)cc1 (stereo not drawn) , strictly under 8 µM or not?
Result: yes (1)

Request: Does this compound meet the criterion IC50 < 8 µM? Cc1ccc(OS(=O)(=O)C2CC3OC2C(c2ccc(O)cc2)=C3c2ccc([Se]c3ccccc3)cc2)cc1 (stereo not drawn)
Result: yes (1)

Request: I wonder whether O=S(=O)(Oc1cccc(Cl)c1)C1CC2OC1C(c1ccc([Se]c3ccccc3)cc1)=C2c1ccc(O)cc1 (stereo not drawn) has IC50 below 8 µM. Can you tell?
Result: no (0)

====

Answer each item with its documented selectivity ratio.
# protocolSummary: Selectivity index, ratio of IC50 for human MCF-10A cells to IC50 for human MCF-7 cells
# Format: toxicity
# assayContext: MCF-10A cells and MCF-7 cells, read-out: Ratio IC50
Keep it simple and answer with nothing but the number.

Request: Specify selectivity ratio for O=S(=O)(Oc1ccc(Br)cc1)C1CC2OC1C(c1ccc([Se]c3ccccc3)cc1)=C2c1ccc(O)cc1 (stereo unspecified) and stop.
Result: 90.8

Request: # return recorded selectivity ratio for input Cc1ccc(OS(=O)(=O)C2CC3OC2C(c2ccc(O)cc2)=C3c2ccc([Se]c3ccccc3)cc2)cc1 (stereo unspecified)
Result: 4.6

Request: Name the recorded selectivity ratio of the item O=S(=O)(Oc1cccc([Se]c2ccccc2)c1)C1CC2OC1C(c1ccc(O)cc1)=C2c1ccc(O)cc1 (stereo unspecified) in your answer.
Result: 29.4

Request: Check the records and state selectivity ratio for COc1cccc(OS(=O)(=O)C2CC3OC2C(c2ccc(O)cc2)=C3c2ccc([Se]c3ccccc3)cc2)c1 (stereo unspecified)
Result: 27.1

Request: Return selectivity ratio for the following molecule: O=S(=O)(Oc1ccc(C(F)(F)F)cc1)C1CC2OC1C(c1ccc(O)cc1)=C2c1ccc([Se]c2ccccc2)cc1 (stereo unspecified)
Result: 94.3

Request: Report selectivity ratio for O=S(=O)(Oc1ccc(O)cc1)C1CC2OC1C(c1ccc(O)cc1)=C2c1ccc([Se]c2ccccc2)cc1 (stereo unspecified)
Result: 8.54

Request: Kindly indicate its recorded selectivity ratio. Item: O=S(=O)(Oc1cccc(Cl)c1)C1CC2OC1C(c1ccc([Se]c3ccccc3)cc1)=C2c1ccc(O)cc1 (stereo unspecified)
Result: 97.8

Request: Answer with the recorded selectivity ratio for the molecule listed here: O=S(=O)(Oc1ccc(Br)cc1)C1CC2OC1C(c1ccc(O)cc1)=C2c1ccc([Se]c2ccccc2)cc1 (stereo unspecified)
Result: 75.6

Request: Let me know recorded selectivity ratio for O=S(=O)(Oc1ccc(C(F)(F)F)cc1)C1CC2OC1C(c1ccc([Se]c3ccccc3)cc1)=C2c1ccc(O)cc1 (stereo unspecified) , thanks.
Result: 41.2

Request: For O=S(=O)(Oc1cccc(Br)c1)C1CC2OC1C(c1ccc([Se]c3ccccc3)cc1)=C2c1ccc(O)cc1 (stereo unspecified) , write its selectivity ratio.
Result: 12.7

Request: Provide only the value of recorded selectivity ratio for Cc1cccc(OS(=O)(=O)C2CC3OC2C(c2ccc([Se]c4ccccc4)cc2)=C3c2ccc(O)cc2)c1 (stereo unspecified)
Result: 255
